Taken from patent US20260042769A1.

Form field: EC50 (one value per entry).
Biological target: human ADRA2B receptor (Homo sapiens)
Construct: expressed in transfected cells
Sequence (P18089 1-450): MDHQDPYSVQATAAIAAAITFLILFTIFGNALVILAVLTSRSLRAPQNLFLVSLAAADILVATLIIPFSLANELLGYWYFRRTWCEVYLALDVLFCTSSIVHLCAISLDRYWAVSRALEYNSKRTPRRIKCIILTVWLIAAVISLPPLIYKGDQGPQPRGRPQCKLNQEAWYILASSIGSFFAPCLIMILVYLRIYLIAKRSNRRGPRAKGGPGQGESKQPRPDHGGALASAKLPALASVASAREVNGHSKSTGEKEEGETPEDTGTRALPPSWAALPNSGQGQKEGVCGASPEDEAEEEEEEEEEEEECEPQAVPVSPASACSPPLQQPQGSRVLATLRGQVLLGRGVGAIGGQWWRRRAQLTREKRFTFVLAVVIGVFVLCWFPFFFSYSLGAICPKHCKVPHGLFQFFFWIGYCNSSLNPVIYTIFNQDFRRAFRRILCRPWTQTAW
Assay: GTPγS agonist assay, ADRA2B receptor
Assay type: biochemical
Settings: read-out: GTPase - Human Alpha2B EC50

>>> df
                                   compound                                   tgt  reportedendpoint   result
0  Cc1cccc([C@H](Cc2cccnc2)c2cnc[nH]2)c1Cl [Compound 60]  human ADRA2B receptor (Homo sapiens)              EC50  < 10 nM

Entry Cc1cccc([C@@H](Cc2cncs2)c2c[nH]cn2)c1C [Compound 128] has what EC50?
50 to 500 nM

Entry Cc1cccc([C@@H](Cc2cccnn2)c2cnc[nH]2)c1C [Compound 56] please
> 500 nM

Field entry: Cc1cccc([C@@H](Cc2cccnn2)c2c[nH]cn2)c1F [Compound 137]
50 to 500 nM

Also check COc1cccc(C[C@@H](c2c[nH]cn2)c2cccc(C)c2C)n1 [Compound 4]
50 to 500 nM

Now give it for COc1ccccc1[C@H](Cc1ccccn1)c1cnc[nH]1 [Compound 31] too.
> 500 nM

Same question for COc1ccc(C(Cc2cccnn2)c2c[nH]cn2)cc1 (centres unmarked) [Compound 222] please.
> 500 nM
